test: Acute oral toxicity in rats; type: in vivo; details: rat, in vivo, po, 2000 mg/kg, 2 g/kg oral, M & F, 5 Days; read-out: Percentage Mortality
ENDPOINT_NAME: mortality at 120 h (%)
State just the number; it will be interpreted in %.

Request: Record request: mortality at 120 h value, item `CC(=O)Nc1ccc(O)cc1`
Result: 5

* * *

Test: Acute oral toxicity in rats
Format: in vivo
Conditions: rat, in vivo, po, 8000 mg/kg, 8 g/kg oral, 10 F, 6 Days; read-out: Percentage Mortality
Description: (F)--Investigation of Acute Oral Toxicity in Rats The investigation was carried out upon groups of 10 male and 10 female albino rats (Charles River CD-1 COBS) of 80-100 g body weight. […] Before the experiment they were fasted overnight, with water ad libitum. […] The rats were then kept under observation during seven days, while their behaviour patterns were observed and the mortality recorded
ENDPOINT_NAME: mortality at 144 h (%)
State just the number; it will be interpreted in %.

Request: Record request: mortality at 144 h value, item `CC(=O)Nc1ccc(O)cc1`
Result: 100

* * *

assay: Acute oral toxicity in rats; assay type: in vivo; conditions: rat, in vivo, po, 2000 mg/kg, Percentage Mortality
ENDPOINT_NAME: mortality at 168 h (%)
State just the number; it will be interpreted in %.

Request: Record request: mortality at 168 h value, item CSCCC(NC(C)=O)C(=O)Oc1ccc(NC(C)=O)cc1 (racemic)
Result: 0

* * *

assay: Acute oral toxicity in rats; type: in vivo; details: rat, in vivo, po, 4000 mg/kg, 4 g/kg oral, 10 F, 48 Hours; read-out: Percentage Mortality
ENDPOINT_NAME: mortality at 48 h (%)
State just the number; it will be interpreted in %.

Request: Record request: mortality at 48 h value, item `CC(=O)Nc1ccc(O)cc1`
Result: 70

* * *

test: Acute oral toxicity in rats; format: in vivo; conditions: rat, in vivo, po, 1000 mg/kg, 1 g/kg oral, M & F, 5 Days; read-out: Percentage Mortality
ENDPOINT_NAME: mortality at 120 h (%)
State just the number; it will be interpreted in %.

Request: Record request: mortality at 120 h value, item `CC(=O)Nc1ccc(O)cc1`
Result: 5

* * *

assay: Acute oral toxicity in rats; format: in vivo; settings: rat, in vivo, po, 4000 mg/kg, 4 g/kg oral, 10 M, 24 Hours; read-out: Percentage Mortality
ENDPOINT_NAME: mortality at 24 h (%)
State just the number; it will be interpreted in %.

Request: Record request: mortality at 24 h value, item `CC(=O)Nc1ccc(O)cc1`
Result: 90

* * *

assay: Acute oral toxicity in rats; assay type: in vivo; settings: rat, in vivo, po, 2000 mg/kg, 2 g/kg oral, 10 M, 6 Days; read-out: Percentage Mortality
ENDPOINT_NAME: mortality at 144 h (%)
State just the number; it will be interpreted in %.

Request: Record request: mortality at 144 h value, item `CC(=O)Nc1ccc(O)cc1`
Result: 10

* * *

assay: Acute oral toxicity in rats; type: in vivo; details: rat, in vivo, po, 2000 mg/kg, 2 g/kg oral, 10 M, 4 Days; read-out: Percentage Mortality
ENDPOINT_NAME: mortality at 96 h
Include the unit after the number when you answer.

Request: Record request: mortality at 96 h value, item `CC(=O)Nc1ccc(O)cc1`
Result: 10%
